FYI, the data here is from ChEMBL document CHEMBL1201862.

- Test system: HT-29
- ASSAY_NAME: NCI tumour cell line growth inhibition, 48 h
The source made the active and inactive calls. No stated cut-off is given here; in the data, active = GI50 up to about 1.1 µM and inactive = higher.
# valid calls are active, inactive; nothing else

# COMPOUND, ASSIGNED_CATEGORY
records = [
    ("Cc1cc(S(=O)(=O)N=C2NCC(C)(C)CN2)c(S)cc1Cl", "inactive"),
    ("CC(=O)O[C@@]12CO[C@@H]1C[C@H](O)[C@@]1(C)C(=O)[C@H](O)C3=C(C)[C@@H](OC(=O)[C@H](O)[C@@H](NC(=O)OC(C)(C)C)c4ccccc4)C[C@@](O)([C@@H](OC(=O)c4ccccc4)[C@H]21)C3(C)C [DOCETAXEL]", "active"),
    ("O=C(Nc1ccc2nc(-c3ccccc3)cn2c1)Oc1ccccc1", "inactive"),
    ("c1ccc(CN2CCc3[nH]c4ccccc4c3C2)cc1", "inactive"),
    ("COc1ccc(NC(=O)C2C(=O)N(c3ccc(OC)cc3)C(=O)/C2=N/O)cc1 (stereo unspecified)", "inactive"),
    ("COc1cc(C#CC(=O)OC/C=C/c2ccc3c(c2)OCO3)cc(OC)c1OC", "inactive"),
    ("Cc1cc(NS(=O)(=O)c2ccc(NC(=O)c3cccc4c(Nc5ccc(S(N)(=O)=O)cc5)c5ccccc5nc34)cc2)no1", "inactive"),
    ("NC(CCSCCF)C(=O)O (stereo unspecified)", "inactive"),
]

Q: Which outcome was assigned to NC(=O)CC[C@H]1C(=O)N=C(N)N1C(=O)OCc1ccccc1 in this test?
Result: inactive

----------
- Test system: SW-620
- ASSAY_NAME: NCI tumour cell line growth inhibition, 48 h
Active and inactive are the calls of the source. No stated cut-off is given here; in the data, active = GI50 up to about 1.1 µM and inactive = higher.
Please respond with reported GI50 for every item in the list.

# COMPOUND, MEASURED_TARGET, OBS_VALUE
data = [
    ("Nc1c(C(=O)O)nnc2cc(Cl)ccc12", "SW-620", "> 100 µM (inactive)"),
    ("c1cncc(CSc2nc3ccccc3nc2-c2cccs2)c1", "SW-620", "91.4 µM (inactive)"),
]

Report GI50 for each item below.
1. O=C(CSCC(=O)N/N=C/c1cccc(OCc2ccccc2)c1)N/N=C/c1cccc(OCc2ccccc2)c1
2. Cn1c(=O)ccc2cc(C(=O)c3ccccc3)ccc21
3. N#Cc1c(SCc2ccccc2)nc(-c2ccccc2)[nH]c1=S
4. C=CC(Br)(CBr)CCC(Br)C(C)(C)Br (stereo not given)
5. C=C(C)[C@@H](C(=O)OC)N1C(=O)c2ccccc2C1=O

Result:
> 87.1 µM (inactive)
> 100 µM (inactive)
25.6 µM (inactive)
13.7 µM (inactive)
> 100 µM (inactive)

Report GI50 for each item below.
1. COc1ccccc1N/C(=C\C(=O)C(=O)NC12CC3CC(CC(C3)C1)C2)c1ccccc1
2. O=C(NC(Nc1ccc(F)c(Cl)c1)(C(F)(F)F)C(F)(F)F)C(C(F)(F)F)C(F)(F)F
3. CCCCCCCCCC[C@@H](O)[C@@H]1CC[C@@H]([C@@H]2CC[C@@H]([C@@H](O)CCCCCCCCCC[C@H](O)CC3=CC(C)OC3=O)O2)O1 (stereo not given in full)

Result:
["> 10 µM (inactive)", "22.1 µM (inactive)", "3.78 µM (inactive)"]

----------
- System: M19-MEL
- ASSAY_NAME: NCI tumour cell line growth inhibition, 48 h
Active and inactive are the calls of the source. Rule as the data show it: active = GI50 up to about 1.1 µM and inactive = higher.
MEASURED_PARAMETER: GI50

Worked cases, answers included:
# COMPOUND, OBS_VALUE
records = [
    ("Cc1cc(O)nc(NN2C(Cl)C(=O)C2c2ccc(O)cc2)n1 (stereo not given)", "10.5 µM (inactive)"),
    ("CCCCc1c2c(nc3c1CCC/C3=C\\c1ccccc1)C(=O)CCC2", "18.2 µM (inactive)"),
    ("COc1ccc(-c2cc(=O)c3c(O)cccc3o2)c(OC)c1OC", "> 100 µM (inactive)"),
    ("N#CC(C(=O)C(=O)Nc1ccccc1)c1ccccc1 (stereo not given)", "> 100 µM (inactive)"),
    ("COC(=O)C(=O)C(C(=O)C(=O)Nc1ccc([N+](=O)[O-])cc1)c1nc2ccccc2nc1O (stereo not given)", "> 100 µM (inactive)"),
]

Report GI50 for each item below.
1. NNC(=O)N/N=C1\CNC(=O)C(=O)C1c1nc2ccccc2s1 (stereo not given)
2. CCc1ccccc1NC(=O)C1=C(C)NC(C)=C(C(=O)Nc2ccccc2CC)C1c1cccc([N+](=O)[O-])c1
3. O=C(Nc1cccc(Cl)c1)c1cc2cc(/N=N/c3ccc(Br)cc3)ccc2oc1=O

Result:
> 100 µM (inactive)
44.7 µM (inactive)
> 10 µM (inactive)

Report GI50 for each item below.
1. C1=CC(=P(c2ccccc2)(c2ccccc2)c2ccccc2)C=C1
2. Cc1c(C(=O)C/C(=N/NC(=O)C[n+]2ccccc2)C(=O)Nc2ccccc2)[n+]([O-])c2ccccc2[n+]1[O-]

Result:
1: 4.04 µM (inactive); 2: > 100 µM (inactive)

----------
- Test system: SK-OV-3
- ASSAY_NAME: NCI tumour cell line growth inhibition, 48 h
Activity calls are given as the source filed them. Cut-off read from the data, not from the text of the source: active = GI50 up to about 1.1 µM and inactive = higher.
MEASURED_PARAMETER: GI50

# COMPOUND, GI50
rows = [
    ("Nc1nc(O)c2c(ncn2CC(O)CO)n1 (stereo unspecified)", "> 100 µM (inactive)"),
    ("O=C(O)c1cc2ccccc2c(/N=N/c2ccc(S(=O)(=O)Nc3ccccn3)cc2)c1O", "> 100 µM (inactive)"),
]

Report GI50 for each item below.
1. CC1(C)OC1CC/C(=C/CBr)CBr (stereo unspecified)
2. C=C(C)[C@@H](C(=O)OC)N1C(=O)c2ccccc2C1=O
3. O=[N+]([O-])C1C2C=CC(C2)[C@H]1c1ccco1 (stereo partly specified)
4. O=C1OC(c2ccc(O)c(F)c2)(c2ccc(O)c(F)c2)c2cccc3cccc1c23

Result:
1. 19 µM (inactive)
2. > 100 µM (inactive)
3. > 100 µM (inactive)
4. > 25 µM (inactive)

----------
Please respond with reported GI50 for every item in the list.
- System: KM12
- ASSAY_NAME: NCI tumour cell line growth inhibition, 48 h
The source made the active and inactive calls. Cut-off read from the data, not from the text of the source: active = GI50 up to about 1.1 µM and inactive = higher.

Worked cases, answers included:
# COMPOUND, GI50
data = [
    ("c1ccc(/C(=N/Nc2cnccn2)c2ncccn2)cc1", "39 µM (inactive)"),
    ("Cc1cc(S(=O)(=O)N=C2NCC(C)(C)CN2)c(S)cc1Cl", "30.8 µM (inactive)"),
    ("N#CC(C#N)=C(N)/C(C#N)=C\\c1ccnc2ccccc12", "25.7 µM (inactive)"),
    ("CC1OC(OC2C(OC(=O)[C@]34CCC(C)(C)C[C@H]3C3=CC[C@@H]5[C@@]6(C)CC[C@H](OC7OC(C(=O)O)C(O)C(O)C7O)C(C)(C)[C@@H]6CC[C@@]5(C)[C@]3(C)C[C@H]4O)OCC(O)C2O)C(O)C(OC2OCC(O)(CO)C2O)C1OC1OCC(O)C(O)C1O (stereo partly specified)", "4.36 µM (inactive)"),
    ("CO[C@@H]1C[C@H]2N3CC[C@@]2(c2cc4c(cc2C3)OCO4)[C@H]2O[C@@H]12", "> 100 µM (inactive)"),
    ("NC1CC(=O)c2cc(Cl)sc21 (stereo unspecified)", "> 100 µM (inactive)"),
]

Report GI50 for each item below.
1. CC(=O)NNC1=NN(C(C)=O)C2(S1)C(=O)Nc1ccccc12 (stereo unspecified)
2. C=C1C(=O)OC2C(C)C3C=CC(=O)[C@@]3(C)C(OC(=O)/C(C)=C/C)C1[C@@H]2OC(C)=O (stereo partly specified)
3. CN(CCCCN1CCCC1)CCCCN(C)C(=O)Cc1ccc(Cl)c(Cl)c1
4. COc1cc(-c2cc(=O)c3ccccc3o2)ccc1N
5. CSCC(COC(C)=O)(CSC)c1ccncc1
6. NCCSC1(O)C(=O)c2ccccc2-c2ccccc21 (stereo unspecified)

Result:
["> 100 µM (inactive)", "1.46 µM (inactive)", "13.1 µM (inactive)", "39.3 µM (inactive)", "> 100 µM (inactive)", "1.63 µM (inactive)"]

Report GI50 for each item below.
1. COc1nc(OC)nc(Sc2ccc(Sc3ccc(Sc4nc(OC)nc(OC)n4)cc3)cc2)n1
2. O=C1/C(=C\c2ccc([N+](=O)[O-])cc2)N(S(=O)(=O)c2ccccc2)c2ncccc21
3. CCC(=O)C(C(=O)CC)c1c(OC(=O)c2ccccc2)ccc(O)c1C(=O)OC
4. CN(C)c1nc(N(C)C)nc(N(C)CN(C)c2ccccc2)n1
5. CCC[C@H](C)C[C@H](C)C[C@H](C)/C=C(\C)[C@@H](O)[C@@H](C)C(=O)CC
6. c1cncc(CSc2nc3ccccc3nc2-c2cccs2)c1
7. COc1cc(C2SCC(=O)N2c2ccc(-n3c(-c4ccccc4)nc4ccccc4c3=O)cc2)ccc1O (stereo unspecified)

Result:
1: > 100 µM (inactive); 2: 20.3 µM (inactive); 3: > 100 µM (inactive); 4: > 100 µM (inactive); 5: 20.2 µM (inactive); 6: 48.6 µM (inactive); 7: 34.4 µM (inactive)

Report GI50 for each item below.
1. NNC(=O)C(=O)N/N=C1/CCCC1C(=O)CCC(=O)Nc1ccc(Cl)cc1 (stereo unspecified)
2. CCC(=N\NC(N)=S)/C(C)=N/O

Result:
["> 100 µM (inactive)", "> 100 µM (inactive)"]
